test: chemical genetic growth profiling, strain panel (AID 1159580);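 further: tested at 20 µM; growth read once vehicle control cultures reached saturation at 30 °C; 1 = growth at the plate median or of vehicle wells; lower values mean less growth of the strain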; details: S. cerevisiae deletion strains, growth OD, locus YOR083W, strain WHI5 (second series)
The whole screen tested about 5,500 compounds, of which about 2,000 (36%) were called active. Another 18% or so got no clear call; they are omitted. No stated cut-off is given here; in the data, active means normalized growth mostly below about 0.91 (no sharp cut-off); inconclusive means no clear call, values can overlap the other calls; inactive means mostly above about 0.92. The list shows a part of the results.
Output constraint: value belongs to active, inactive

Solved entries:
compound	labelClass
N#C/C(=C\c1ccc(O)c(O)c1)C(=O)NCc1ccccc1	inactive
CC(C)CN(C)c1nc(N)c(C(=O)N=C(N)N)nc1Cl	active
O=C1NC(=O)C(c2ccccc2[N+](=O)[O-])=C1Nc1ccc(O)c(Cl)c1	inactive
COc1cc(OC)c(/C=C2/C(=O)Nc3ccccc32)c(OC)c1	inactive

Prompt: Recorded call for NC(N)=NC(=O)c1nc(Cl)c(N)nc1N ?
Response: inactive

Prompt: Assay outcome for CCN(c1nc(N)c(C(=O)N=C(N)N)nc1Cl)C(C)C : what was it?
Response: inactive

Prompt: Assay result, entry NC(=Nc1ccccc1)NC(=O)c1nc(Cl)c(N)nc1N — outcome?
Response: inactive

Prompt: How did this test come out for O=C(NC(Cc1ccccc1)C(=O)CCl)OCc1ccccc1 (stereo not given) ?
Response: active

Prompt: Name the outcome recorded for O=C(O)Cc1cnc[nH]1 in the assay.
Response: inactive

Prompt: Which outcome was assigned to COC(=O)[C@@H]1[C@H]2C[C@H]3c4[nH]c5ccccc5c4CCN3C[C@@H]2CC[C@@H]1O in this test?
Response: inactive

* * *

experiment: chemical genetic growth profiling, strain panel (AID 1159580); details: S. cerevisiae deletion strains, growth OD, locus YOR080W, strain dia2
Among all 5,500 compounds or so, about 2,000 (36%) were called active. Not shown: some 18% with an inconclusive outcome. Rule as the data show it: active = normalized growth mostly below about 0.91 (no sharp cut-off); inconclusive = no clear call, values can overlap the other calls; inactive = mostly above about 0.92. The list shows a part of the results.
Field 'call' accepts t for active, f for inactive

Study these solved cases before continuing.
compound	labelClass
NS(=O)(=O)c1cc(C2(O)NC(=O)c3ccccc32)ccc1Cl (configuration not stated)	f
CCN(Cc1ccncc1)C(=O)C(CO)c1ccccc1 (configuration not stated)	f
C[C@@H]([C@H](O)c1ccccc1)N(C)C	f
CC(=O)OC(C)C[N+](C)(C)C (configuration not stated)	f
O=C(Cc1cccs1)NC1C(=O)N2C(C(=O)[O-])=C(C[n+]3ccccc3)CSC12 (configuration not stated)	f
C[C@H]1O[C@H](OC2[C@@H](O)[C@@H](O)C(O)[C@H](O)[C@H]2O)[C@@H](N)C[C@@H]1N=C(N)C(=O)O (some centres not stated)	f

Then this compound:
Prompt: Assay result, entry COC(=O)[C@@]1(C)CCC[C@]2(C)c3ccc(O)c(C(C)C)c3CCC12 (some centres not stated) — outcome?
Response: t

* * *

assay: chemical genetic growth profiling, strain panel (AID 1159580);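 further: tested at 20 µM; growth read once vehicle control cultures reached saturation at 30 °C; 1 = growth at the plate median or of vehicle wells; lower values mean less growth of the strain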; conditions: S. cerevisiae deletion strains, growth OD, locus YNR052C, strain pop2, active compounds read low
Out of some 5,500 compounds screened, about 2,000 (36%) were called active. About 18% were inconclusive and are not listed. The list shows a part of the results.
reportedMetric: normalized growth
One number for each entry.

Reference set, count: 4
molecule	normalized growth
OCC(O)C(O)C(O)C(O)C(O)CO (stereo unspecified)	1.03
CN(C)c1nc(N)c(C(=O)N=C(N)N)nc1Cl	1.02
NC(=O)CN1CCCC1=O	1.01
CC(=O)O[C@@H]1CC(=O)[C@@]2(C)C(CC(=O)[C@]3(C)C2CC[C@@]2(C)[C@H](c4ccoc4)OC(=O)C4OC423)C1(C)C (stereo partly specified)	1.01

Give normalized growth for each listed item.
1. NC(N)=NC(=O)c1nc(Cl)c(N2CCCCCC2)nc1N
2. CCC1OC(=O)[C@H](C)C(=O)[C@H](C)[C@@H](OC2O[C@H](C)C[C@H](N(C)C)[C@H]2O)[C@](C)(OC)C2(CCCn3cnc(-c4cccnc4)c3)C[C@@H](C)C(=O)[C@H](C)[C@H]3N(C2)C(=O)O[C@]13C (stereo partly specified)
3. Cc1cc(C2CCCCC2)n(O)c(=O)c1
4. O=c1c(O)c(-c2ccc(O)cc2O)oc2cc(O)cc(O)c12
5. CC1(C)C(=O)C=C[C@@]2(C)C1CC(=O)[C@]1(C)C2CC[C@@]2(C)[C@H](c3ccoc3)OC(=O)[C@H]3O[C@]321 (stereo partly specified)
6. C[C@@H]1O[C@@H](OC[C@H]2OC(Oc3c(-c4ccc(OCCO)c(OCCO)c4)oc4cc(OCCO)cc(O)c4c3=O)[C@H](O)[C@@H](O)[C@@H]2O)[C@H](O)[C@H](O)[C@H]1O (stereo partly specified)
7. CC12CCC3c4ccc(OCc5ccccc5)cc4CCC3C1C[C@@H](O)[C@@H]2O (stereo partly specified)
8. COc1ccc(-c2oc3c(CC=C(C)C)c(O[C@@H]4O[C@H](CO)[C@@H](O)[C@H](O)[C@H]4O)cc(O)c3c(=O)c2O[C@@H]2O[C@@H](C)[C@H](O)[C@@H](O)[C@H]2O)cc1

Response:
1. 1.02
2. 1.01
3. 0.0622
4. 0.992
5. 1.03
6. 0.99
7. 0.0752
8. 0.984

* * *

I'd appreciate it if you could supply normalized growth values for the items below.
assay: chemical genetic growth profiling, strain panel (AID 1159580);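 further: tested at 20 µM; growth read once vehicle control cultures reached saturation at 30 °C; 1 = growth at the plate median or of vehicle wells; lower values mean less growth of the strain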; conditions: S. cerevisiae deletion strains, growth OD, locus YLR221C, strain rsa3, active compounds read low
Among all 5,500 compounds or so, about 2,000 (36%) were called active. Inconclusive results (about 18%) are left out. Some of the results follow.
Answers are plain numbers.

compound	reportedMetric	valueMeasured
COC(=O)[C@]1(C)CCC[C@]2(C)c3ccc(C(C)C)cc3C(=O)CC12 (some centres undefined)	normalized growth	1
CC1(C)C(=O)C=C[C@@]2(C)C1C[C@@H](O)[C@]1(C)C2CC[C@@]2(C)[C@H](c3ccoc3)OC(=O)[C@H]3O[C@]321 (some centres undefined)	normalized growth	1
CC(=O)O[C@@H]1CC2C(C)(C)C(=O)C=C[C@]2(C)C2CC[C@@]3(C)[C@H](c4ccoc4)OC(=O)[C@H]4O[C@]43[C@@]21C (some centres undefined)	normalized growth	0.989

Batch: normalized growth for all items listed.
1. Cc1[nH]ccc2c1[nH]c1cc(=O)ccc12
2. COc1ccc(Cl)cc1C(=O)NCCc1ccc(S(=O)(=O)NC(=O)NC2CCCCC2)cc1
3. CC1(C)C2CC(=O)[C@]3(C)C(CC[C@@]4(C)[C@H](c5ccoc5)OC(=O)C5OC543)[C@@]2(C)[C@@H](O)C[C@H]1O (some centres undefined)

Response:
[1.01, 1, 1.01]

For the 5 compounds below, give their normalized growth values.
1. O=c1c(O)c(-c2ccc(O)c(O)c2)oc2c(O[C@@H]3O[C@H](CO)[C@H](O)[C@@H](O)[C@H]3O)c(O)cc(O)c12
2. C[C@]12CCC3c4ccc(O)cc4CCC3C1CC[C@@H]2O (some centres undefined)
3. COc1cc2occc2c2oc(=O)ccc12
4. CC1(C)C=CC(=O)[C@@]2(C)C1CC(=O)[C@]1(C)C2CC[C@@]2(C)[C@H](c3ccoc3)OC(=O)C3OC321 (some centres undefined)
5. CCOCN(C(=O)CCl)c1c(C)cccc1CC

Response:
[1, 0.977, 1.02, 1, 0.981]

For every listed record, write down its normalized growth.
1. Cc1cc(OC(=O)c2c(C)cc(O)cc2O)cc(O)c1C(=O)O
2. CCC1OC(=O)[C@H](C)C(=O)[C@H](C)[C@@H](OC2O[C@H](C)C[C@H](N(C)C)[C@H]2O)[C@](C)(OC)C2(CCCn3cnc(-c4cccnc4)c3)C[C@@H](C)C(=O)[C@H](C)[C@H]3N(C2)C(=O)O[C@]13C (some centres undefined)
3. CC(=O)Oc1ccc2c(c1C(C)C)CCC1C(C)(C)CCC[C@]21C (some centres undefined)
4. NC(=O)c1ncn([C@@H]2O[C@H](CO)[C@@H](O)[C@H]2O)n1
5. NC(=O)CN1CCCC1=O
6. CN1C[C@H](C(=O)N[C@]2(C)O[C@@]3(O)[C@@H]4CCCN4C(=O)[C@H](Cc4ccccc4)N3C2=O)C[C@@H]2c3cccc4[nH]cc(c34)C[C@H]21
7. CCCCC1C(=O)N(c2ccccc2)N(c2ccc(O)cc2)C1=O (centres undefined)

Response:
0.979
0.973
1.02
0.982
0.989
0.997
1.02

The value of normalized growth measured for the compound CC(C)(C)NCC(O)c1cc(Cl)c(N)c(Cl)c1 (centres undefined) turned out to be 1

* * *

assay: chemical genetic growth profiling, strain panel (AID 1159580);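 further: tested at 20 µM; growth read once vehicle control cultures reached saturation at 30 °C; 1 = growth at the plate median or of vehicle wells; lower values mean less growth of the strain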; conditions: S. cerevisiae deletion strains, growth OD, locus YER002W, strain NOP16, active compounds read low
The campaign covered roughly 5,500 compounds. About 2,000 (36%) were called active. Not shown: some 18% with an inconclusive outcome. This is one part of the list. Where a SMILES comes first, the peptide text is derived from it. The star is where a group is joined. Cbz = O=C(OCc1ccccc1)*
reportedMetric: normalized growth
Give bare numbers.

molecule	normalized growth
CC(C)[C@H](NC(=O)OCc1ccccc1)C(=O)N[C@H](C=O)Cc1ccccc1 (Cbz-Val-Phe-aldehyde)	0.993
CCN(Cc1ccncc1)C(=O)C(CO)c1ccccc1 (stereo not drawn)	0.994

Read the next record carefully.
response.value for N#CC(C#N)=C(N)/C(C#N)=C/c1ccc(O)cc1 (field: normalized growth) = 1

Values from PubChem BioAssay AID1159580
